Test system: HOP-62 NSCLC
Test: NCI tumour cell line growth inhibition, 48 h
Listed here: items and their measured TGI.
Quantity Kind: TGI

[[record]]
compound = "NS(=O)(=O)c1ccc(NC(=O)C2C(=O)C(=O)N(c3ccc(S(N)(=O)=O)cc3)C2=O)cc1 (stereo not drawn)"
tested_on = "HOP-62 NSCLC"
quantity_kind = "TGI"
result = "> 100 µM"

[[record]]
compound = "CC1=NN2C(c3ccc([N+](=O)[O-])cc3)=CSC2=NC(C)(C)C1"
tested_on = "HOP-62 NSCLC"
quantity_kind = "TGI"
result = "> 100 µM"

[[record]]
compound = "COC(=O)c1c(-c2cc(OC)c(OC)c(OC)c2)oc2ccccc2c1=O"
tested_on = "HOP-62 NSCLC"
quantity_kind = "TGI"
result = "> 100 µM"

[[record]]
compound = "Cc1cn(Cc2cccc(C3=NCCCN3)c2)c(=O)n(Cc2cccc(C3=NCCCN3)c2)c1=O"
tested_on = "HOP-62 NSCLC"
quantity_kind = "TGI"
result = "> 100 µM"

[[record]]
compound = "CN(C)Cc1ccc(NC(=O)c2cncc(C#Cc3cnc(N)c4ncccc34)c2)cc1F"
tested_on = "HOP-62 NSCLC"
quantity_kind = "TGI"
result = "42.8 µM"

[[record]]
compound = "CCS(=O)c1c2cc(OC)ccc2nc2ccc(OC)cc12 (stereo not drawn)"
tested_on = "HOP-62 NSCLC"
quantity_kind = "TGI"
result = "51.1 µM"

[[record]]
compound = "Clc1ccc2c(c1)N(C1CCCN(Cc3ccccc3)C1)c1ccccc1S2 (stereo not drawn)"
tested_on = "HOP-62 NSCLC"
quantity_kind = "TGI"
result = "> 100 µM"

[[record]]
compound = "Fc1ccc(-c2nn3ccccc3c2-c2ccncc2)cc1"
tested_on = "HOP-62 NSCLC"
quantity_kind = "TGI"
result = "> 25 µM"

[[record]]
compound = "N#CC(C#N)=c1c2ccccc2c(=C(C#N)C#N)c2ccccc12"
tested_on = "HOP-62 NSCLC"
quantity_kind = "TGI"
result = "40.5 µM"

[[record]]
compound = "CO[C@]12S[C@@H]3CCCC[C@@]31C(C)(C)C(=O)N2c1ccccc1"
tested_on = "HOP-62 NSCLC"
quantity_kind = "TGI"
result = "53.5 µM"

[[record]]
compound = "O=C1CCC2c3ccccc3NCN12 (stereo not drawn)"
tested_on = "HOP-62 NSCLC"
quantity_kind = "TGI"
result = "> 100 µM"

[[record]]
compound = "CCNC1=C(NC(=O)c2ccccc2)C(=O)c2ccccc2C1=O"
tested_on = "HOP-62 NSCLC"
quantity_kind = "TGI"
result = "> 100 µM"

[[record]]
compound = "COc1ccc2c(c1)CCc1cc(OC)ccc1/[N+]([O-])=[N+]\\2[O-]"
tested_on = "HOP-62 NSCLC"
quantity_kind = "TGI"
result = "52.8 µM"

[[record]]
compound = "CC(=O)Nc1ccc(S(=O)(=O)N=S(C)C)cc1"
tested_on = "HOP-62 NSCLC"
quantity_kind = "TGI"
result = "> 100 µM"

[[record]]
compound = "Cc1ccc(S(=O)(=O)N/N=C2\\CCC3(O)CC2(C)CCC2C3CC2(C)C)cc1 (stereo not drawn)"
tested_on = "HOP-62 NSCLC"
quantity_kind = "TGI"
result = "> 100 µM"

[[record]]
compound = "COc1ccccc1[As]=[As]c1ccccc1OC (stereo not drawn)"
tested_on = "HOP-62 NSCLC"
quantity_kind = "TGI"
result = "0.164 µM"

[[record]]
compound = "CC(=O)NNc1nc(C)c(C(=O)NNC(=O)C(=O)Nc2c([N+](=O)[O-])ccc(C)c2C)s1"
tested_on = "HOP-62 NSCLC"
quantity_kind = "TGI"
result = "> 100 µM"

[[record]]
compound = "Oc1[nH]c2ccccc2c1/C=c1/ccc2c(c1)N=C(c1ccc(C(F)(F)F)cc1)N=2"
tested_on = "HOP-62 NSCLC"
quantity_kind = "TGI"
result = "15.6 µM"

[[record]]
compound = "OC1CCCC2CCC[N-]C12.OC1CCCC2CCC[N-]C12.[O]=[V][OH] (stereo not drawn)"
tested_on = "HOP-62 NSCLC"
quantity_kind = "TGI"
result = "> 100 µM"

[[record]]
compound = "COc1ccc(O)cc1C(O)c1ccccc1 (stereo not drawn)"
tested_on = "HOP-62 NSCLC"
quantity_kind = "TGI"
result = "> 100 µM"

[[record]]
compound = "CN(C)CCOc1cc2c(c3ccccc13)-c1ccccc1C2O (stereo not drawn)"
tested_on = "HOP-62 NSCLC"
quantity_kind = "TGI"
result = "29 µM"

[[record]]
compound = "CCOC(=O)CSC1NC(C(=O)OC)CC1OC (stereo not drawn)"
tested_on = "HOP-62 NSCLC"
quantity_kind = "TGI"
result = "> 100 µM"

[[record]]
compound = "CC(C)COC1Sc2ccccc2S1"
tested_on = "HOP-62 NSCLC"
quantity_kind = "TGI"
result = "41.3 µM"

